System: 922993-354-T-J3-PDC complex spheroids, viability;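 also: spheroids exposed to compounds for seven days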
experiment: Anticancer human tumor 922993-354-T-J3-PDC patient-derived endometrial carcinoma cell line growth inhibition [GQUAD]
protocol_conditions: second compound 3.16 µM; first compound 1 µM; hits give low values
# note: exactly 90% is not below, so it is N; use Y for viability, T/C strictly under it

Given COc1ccc([C@@H](O)c2cc(-c3ncnc4cc(N5CCOCC5)ccc34)c(F)cc2Cl)nn1 + CN(C)c1ccc(Nc2c3ccc(NC(=O)CCN4CCCC4)cc3nc3cc(NC(=O)CCN4CCCC4)ccc23)cc1 , is recorded viability, T/C strictly lower than 90%?
N

Given O=c1[nH]cc(F)c(=O)[nH]1 + Cc1cnc(CNC(=O)c2c(=O)c3ccc(N4CCCN(C)CC4)nc3n3c2sc2ccccc23)cn1 , is recorded viability, T/C strictly lower than 90%?
Y

Given O=C(NO)c1cnc(N2CCN(S(=O)(=O)c3ccc4ccccc4c3)CC2)nc1 + Cc1[nH]c2ccc(F)cc2c1-c1nc2c3cccnc3c3ncccc3c2[nH]1 , is recorded viability, T/C strictly lower than 90%?
Y

Given CC(C)n1c(=O)n(C)c2cnc3cc(F)c(-c4ccc(OCCCN5CCCCC5)nc4)cc3c21 + Cc1cnc(CNC(=O)c2c(=O)c3ccc(N4CCCN(C)CC4)nc3n3c2sc2ccccc23)cn1 , is recorded viability, T/C strictly lower than 90%?
Y

Given CC1COCCN1c1cc(C2(S(C)(=N)=O)CC2)nc(-c2ccnc3[nH]ccc23)n1 (stereo unspecified) + Cc1cnc(CNC(=O)c2c(=O)c3ccc(N4CCCN(C)CC4)nc3n3c2sc2ccccc23)cn1 , is recorded viability, T/C strictly lower than 90%?
Y

Given Cc1cccc(N(C)C(=O)C2C(O)CCN2c2nc(C)cc(C(F)(F)F)c2C#N)c1 (stereo unspecified) + Cc1[nH]c2ccc(F)cc2c1-c1nc2c3cccnc3c3ncccc3c2[nH]1 , is recorded viability, T/C strictly lower than 90%?
N

Given C=CC(=O)N1CCN(c2nc(=O)n(-c3c(C)ccnc3C(C)C)c3nc(-c4c(O)cccc4F)c(F)cc23)C(C)C1 (stereo unspecified) + Cc1[nH]c2ccc(F)cc2c1-c1nc2c3cccnc3c3ncccc3c2[nH]1 , is recorded viability, T/C strictly lower than 90%?
N

Given CC1COCCN1c1cc(C2(O)CC3CCC(C2)O3)c2cnn(-c3ccn[nH]3)c2n1 (stereo unspecified) + Cc1[nH]c2ccc(F)cc2c1-c1nc2c3cccnc3c3ncccc3c2[nH]1 , is recorded viability, T/C strictly lower than 90%?
Y

Given Nc1ccn(C2OC(CO)C(O)C2(F)F)c(=O)n1 (stereo unspecified) + Cc1cnc(CNC(=O)c2c(=O)c3ccc(N4CCCN(C)CC4)nc3n3c2sc2ccccc23)cn1 , is recorded viability, T/C strictly lower than 90%?
Y

Given CC(C)(O)C1CCC(Nc2ccc3ncc(-c4cccc(C(F)(F)F)c4)n3n2)CC1 (stereo unspecified) + Cc1[nH]c2ccc(F)cc2c1-c1nc2c3cccnc3c3ncccc3c2[nH]1 , is recorded viability, T/C strictly lower than 90%?
Y
